// provenance: patent US20030235863A1

Biological target: T1, N-terminal hexahistidine-tagged FPR (human, UniProt P21462 1-350)
T1 construct: Construct limits and junction are not described; also called N-H6:FPR
T1 sequence: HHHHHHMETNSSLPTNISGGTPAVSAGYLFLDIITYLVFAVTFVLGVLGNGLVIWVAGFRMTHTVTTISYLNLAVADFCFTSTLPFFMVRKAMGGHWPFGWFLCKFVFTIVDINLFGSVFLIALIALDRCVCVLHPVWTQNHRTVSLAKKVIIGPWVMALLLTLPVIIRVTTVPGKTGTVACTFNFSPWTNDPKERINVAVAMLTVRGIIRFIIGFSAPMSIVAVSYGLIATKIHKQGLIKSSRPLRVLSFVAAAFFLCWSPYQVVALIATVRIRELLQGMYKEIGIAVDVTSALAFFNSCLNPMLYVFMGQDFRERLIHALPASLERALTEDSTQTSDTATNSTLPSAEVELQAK
Experiment: soluble receptor in detergent, spectrofluorimetry
pKd: −log10 of the molar value. No end group written: not given here. *: point of attachment. For = O=C*
Value Kind: pKd

binder="For-MLFK (also: FITC conjugated, site not given here, everywhere else it is fMLFK-FITC; also called fMLFK-FITC; fluorescent ligand) [formyl-MLFK-FITC]" recorded_result=8.15
